experimental.system: T1, Human BCMA (B Cell Maturation Antigen) (human, UniProt Q02223 1-184)
T1 sequence: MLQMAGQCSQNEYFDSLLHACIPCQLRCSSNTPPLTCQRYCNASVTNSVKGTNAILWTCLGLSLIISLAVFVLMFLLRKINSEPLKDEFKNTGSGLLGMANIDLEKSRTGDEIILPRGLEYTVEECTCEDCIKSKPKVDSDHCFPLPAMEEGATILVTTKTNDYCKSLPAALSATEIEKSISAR
protocol.notes: cell-based or functional assay
Reported EC50 of cell viability (Cell Titer-Glo), NCI-H929 (BCMA+) cells by item:
Report the value in nM with no unit label.

anti-BCMA-AB2-Compound 7 (antibody, V domains shown, drug-linker Compound 7 on antibody cysteine thiols (positions not stated)) VH: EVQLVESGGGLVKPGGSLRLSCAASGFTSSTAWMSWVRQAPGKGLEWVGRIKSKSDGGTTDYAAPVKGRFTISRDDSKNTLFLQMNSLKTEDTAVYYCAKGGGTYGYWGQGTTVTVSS VL: QSALTQPASVSGSPGQSVTISCTGTSSDGGGHTYVSWYQQHPGKAPKLMIYDVSNRPSWVSNRFSGSKSGNTASLTISGLQAEDEADYYCGSYTSSGSYVFGTGTKLTVL	19.4

Now, please, on to the next binder.
**Q:** # query: EC50 of cell viability (Cell Titer-Glo), NCI-H929 (BCMA+) cells of entry anti-BCMA-AB2-Compound 3 (antibody, V domains shown, drug-linker Compound 3 on antibody cysteine thiols (positions not stated)) VH: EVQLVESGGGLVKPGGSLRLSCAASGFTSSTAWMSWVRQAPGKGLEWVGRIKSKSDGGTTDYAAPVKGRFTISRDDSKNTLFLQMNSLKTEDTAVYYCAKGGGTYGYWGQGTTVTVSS VL: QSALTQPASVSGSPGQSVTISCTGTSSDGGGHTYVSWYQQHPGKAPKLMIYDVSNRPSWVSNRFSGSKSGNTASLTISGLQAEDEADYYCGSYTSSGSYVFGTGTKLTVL
**A:** 7.31
